Target: UniProt P49841
Sequence (P49841 whole entry, species assumed): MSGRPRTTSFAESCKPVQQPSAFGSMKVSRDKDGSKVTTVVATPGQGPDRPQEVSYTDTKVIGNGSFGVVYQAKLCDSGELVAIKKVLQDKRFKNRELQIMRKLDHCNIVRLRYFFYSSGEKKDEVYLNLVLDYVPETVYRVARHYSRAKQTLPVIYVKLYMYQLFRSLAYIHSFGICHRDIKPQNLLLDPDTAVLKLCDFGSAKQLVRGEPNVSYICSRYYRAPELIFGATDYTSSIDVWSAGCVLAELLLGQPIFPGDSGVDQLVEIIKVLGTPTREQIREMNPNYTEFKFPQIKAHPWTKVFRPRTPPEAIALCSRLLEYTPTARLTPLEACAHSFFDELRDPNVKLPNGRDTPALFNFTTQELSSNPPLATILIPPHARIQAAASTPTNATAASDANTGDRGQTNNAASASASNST
measure: pIC50
In plain terms, pIC50 is the concentration in mol/L turned into minus its base-10 logarithm.

Provide only the value of recorded pIC50 for CN1CCN(C(=O)c2ccc(Nc3nccc(-c4cccs4)n3)cc2Cl)CC1
7.19
